B1: NF2 (merlin) isoform 7, human, full length (507 aa, lacks exons 2-3 = isoform-1 residues 39-121; exon-16 C-terminus), P35240-4 (parent)
chain: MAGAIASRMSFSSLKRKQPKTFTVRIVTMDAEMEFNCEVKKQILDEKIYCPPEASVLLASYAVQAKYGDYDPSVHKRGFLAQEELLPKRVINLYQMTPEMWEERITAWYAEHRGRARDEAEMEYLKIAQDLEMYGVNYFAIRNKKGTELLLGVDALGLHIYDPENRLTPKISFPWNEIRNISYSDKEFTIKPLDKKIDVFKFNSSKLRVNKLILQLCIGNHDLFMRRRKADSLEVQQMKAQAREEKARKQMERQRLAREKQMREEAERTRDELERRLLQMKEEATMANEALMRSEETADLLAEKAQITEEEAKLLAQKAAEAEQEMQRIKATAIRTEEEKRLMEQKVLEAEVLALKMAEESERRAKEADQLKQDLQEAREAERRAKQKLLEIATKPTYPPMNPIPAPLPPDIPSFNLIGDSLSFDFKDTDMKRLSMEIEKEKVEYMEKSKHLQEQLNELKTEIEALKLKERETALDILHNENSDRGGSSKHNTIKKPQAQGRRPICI

Variants of: B1
Assay: reverse yeast two-hybrid deep mutational scan (rY2H-seq): NF2 isoform 7 mutant library as bait mated with wild-type prey strains; selection on medium lacking adenine for non-interacting pairs; NextSeq paired-end sequencing; enrichment vs …
Conditions: with EMILIN1 (elastin microfibril interfacer 1), Q9Y6C2; yeast diploids after mating (RBait_S3 x RPrey_S3), 30 °C, selection for reporter genes on NB agar; human tyrosine kinase ABL2 co-expressed as the active kinase …; HIGHER = WEAKER BINDING (the opposite of display enrichments): higher = stronger loss of interaction: reverse Y2H selects yeast in which bait and prey do NOT interact (growth without adenine), so a …; hits-only table; scale: rY2H score; numbering: uniprot, sequence starts at 1
readout_type: enrichment
Numbers only.

INSERT INTO assay_data (sequence_variant, quantitative_result) VALUES
  ('S55L', 2.05),
  ('A287T', 1.8),
  ('A331L', 3.27),
  ('L375K', 4.18);

For each of the variants below, note its enrichment.
1. D271L
2. K395Q
3. T269E
4. E338L
5. F79A
6. L158A
7. E325T

Out:
2.2
1.8
4.01
2.53
4.71
2.56
6.21

Entry source: paper PMC10244618
